- Test system: T-47D breast
- test: NCI-60 one-dose screen, 48 h (100 = growth as untreated, 0 = no growth, -100 = all killed)
- setup conditions: 10 µM
The panel holds about 83,000 compounds, 20% with a hit somewhere; the sample as a whole holds those more often.
Mark Y for growth under 50%, N if at or over.

[[record]]
compound = "Cc1cc(=O)n2nnc3c4ccccc4ccc3n12"
assigned_label = "Y"

[[record]]
compound = "CCCCCCCCCCCCCCCC(=O)OC1[C@@H](OC(=O)CCCCCCCCCCCCCCC)[C@@H](C(=O)N[C@@H](CCCCN)C(=O)OC)O[C@H]1n1cnc2c(=O)[nH]c(NC(=O)C(C)C)nc21 (stereo not given in full)"
assigned_label = "N"

[[record]]
compound = "O=C(Nc1cccc(Cl)c1)Nc1nccs1"
assigned_label = "N"

[[record]]
compound = "N#CC1=C(Nc2ccccc2Cl)SC(c2ccccc2O)NC1=O (stereo not given)"
assigned_label = "N"

[[record]]
compound = "CN(C)CCCn1c(=O)c2ccccc2c2cnc3[nH]ccc3c21"
assigned_label = "Y"


----------
- Tested on: EKVX NSCLC
- test: NCI-60 one-dose screen, 48 h (100 = growth as untreated, 0 = no growth, -100 = all killed)
- setup conditions: 10 µM
About 83,000 compounds went through this panel and 20% of them were active in at least one assay; those are over-represented in the sample as a whole.
recorded metric: growth (%)

[[record]]
compound = "COc1cc([C@@H]2c3cc4c(cc3C(Br)[C@H]3COC(=O)[C@H]23)OCO4)cc(OC)c1OC (some centres not stated)"
system = "EKVX NSCLC"
val = 22

[[record]]
compound = "CCN(CC)CCCC(C)Nc1nc(-c2ccc(OC)cc2)nc2cc(Cl)ccc12 (configuration not stated)"
system = "EKVX NSCLC"
val = 70.2

[[record]]
compound = "CCCCCCN(CCCCCC)CC(O)c1ccc2c3c(cccc13)CC2 (configuration not stated)"
system = "EKVX NSCLC"
val = 71.5

[[record]]
compound = "CC(=O)n1c(-c2ccc(Cl)c(Cl)c2)cn(-c2ccc(Cl)cc2)c1=O"
system = "EKVX NSCLC"
val = 30.3

[[record]]
compound = "NC(=O)SCC(=O)Nc1ccc(S(N)(=O)=O)cc1"
system = "EKVX NSCLC"
val = 112

[[record]]
compound = "Nc1nc(N=Nc2ccc(O)cc2)cc(=O)[nH]1"
system = "EKVX NSCLC"
val = 91.4

[[record]]
compound = "COc1ccc(/C(=C2\\O[C@@H]([C@H]3COC(C)(C)O3)[C@H]3OC(C)(C)O[C@@H]23)c2cc(OC)c(OC)c(OC)c2)cc1O"
system = "EKVX NSCLC"
val = 90.2

[[record]]
compound = "CCCCCC(=O)c1ccc(OCCCN2CCN(C(=O)OCC)CC2)cc1"
system = "EKVX NSCLC"
val = 83.4

[[record]]
compound = "C=C(C(=O)c1ccccc1)C(NC(C)(C)C)c1ccccc1 (configuration not stated)"
system = "EKVX NSCLC"
val = 52.3

[[record]]
compound = "CC(C)(C)c1ccc(N2CSC(=S)N(c3ccc(C(C)(C)C)cc3)C2)cc1"
system = "EKVX NSCLC"
val = 84.1

[[record]]
compound = "COC(=O)C1(C)Cc2cc(OC(C)=O)c(OC(C)=O)cc2N1 (configuration not stated)"
system = "EKVX NSCLC"
val = 92.2

[[record]]
compound = "COc1ccc(/C=C/C(=O)Nc2ccc(-c3nc4ccc(F)cc4s3)cc2)cc1"
system = "EKVX NSCLC"
val = 85.3

[[record]]
compound = "O=C(NC(Cc1ccc(O)cc1)C(=O)N=Nc1c(O)[nH]c2ccccc12)c1ccccc1 (configuration not stated)"
system = "EKVX NSCLC"
val = 97.3

[[record]]
compound = "COc1ccc(Cl)cc1C(=O)Nc1nc2ccc(Cl)cc2s1"
system = "EKVX NSCLC"
val = 76.2

[[record]]
compound = "CN(C)CCN=c1nc2c(c(N)n1-c1ccccc1)c(=S)n(-c1ccccc1)c(=S)n2-c1ccccc1"
system = "EKVX NSCLC"
val = 39.8

[[record]]
compound = "Nc1ncnc2[nH]c(=O)[nH]c12"
system = "EKVX NSCLC"
val = 83.2

[[record]]
compound = "Cc1nc2oc3ccccc3c(=O)c2cc1C(=O)NCc1ccccc1"
system = "EKVX NSCLC"
val = 69.3

[[record]]
compound = "N=c1nc(N)ncn1-c1ccccc1"
system = "EKVX NSCLC"
val = 99.7

[[record]]
compound = "COc1ccc2c(c1)C(=O)c1c-2c(OCCN(C)C)nc2cc(OC)c(OC)cc12"
system = "EKVX NSCLC"
val = 93.9

[[record]]
compound = "CN(C)CCNC(=O)c1cccn2c(=O)c3cc4ccccc4cc3nc12"
system = "EKVX NSCLC"
val = 16.1

[[record]]
compound = "Clc1ccccc1N=Cc1ccc2c(c1)OCO2"
system = "EKVX NSCLC"
val = 99.7

[[record]]
compound = "CCCCCCCCN(CCCCCCCC)CCCCCCCCCN1CCCc2cc(OC)ccc21"
system = "EKVX NSCLC"
val = 81.5


Attribution: PubChem BioAssay (NCI)
